Sourced from ChEMBL document CHEMBL5724914

# condition_description: human gut metagenome, 24 h, 2 µM; also: call rule not given here
quantity: Bacterial Biotransformation

COc1ccccc1OCC(O)COC(N)=O (stereo unspecified) [METHOCARBAMOL] : Compound NOT metabolized
COCCc1ccc(OCC(O)CNC(C)C)cc1.COCCc1ccc(OCC(O)CNC(C)C)cc1.O=C(O)C(O)C(O)C(=O)O (stereo unspecified) [METOPROLOL TARTRATE] : Compound metabolized
NC(=O)N1c2ccccc2CC(=O)c2ccccc21 [OXCARBAZEPINE] : Compound NOT metabolized
CN/C(=N/CCSCc1nc[nH]c1C)NC#N [CIMETIDINE] : Compound metabolized
CCC1(c2ccc(N)cc2)CCC(=O)NC1=O (stereo unspecified) [AMINOGLUTETHIMIDE] : Compound NOT metabolized

Give a short answer stating reported Bacterial Biotransformation for CCC(=O)NCC[C@@H]1CCc2ccc3c(c21)CCO3 [RAMELTEON] .
Compound metabolized

###

# condition_description: human gut metagenome, 24 h, 2 µM
quantity: Bacterial Biotransformation

Check out these entries, answers already filled in.
Fc1ccc([C@@H]2CCNC[C@H]2COc2ccc3c(c2)OCO3)cc1 : Compound NOT metabolized
CC(C)NCC(O)c1ccc(NS(C)(=O)=O)cc1 (stereo unspecified) : Compound NOT metabolized
CCc1nc(N)nc(N)c1-c1ccc(Cl)cc1 : Compound NOT metabolized
COC(=O)C1=C(C)NC(C)=C(C(=O)OC(C)C)C1c1cccc2nonc12 (stereo unspecified) : Compound NOT metabolized

Input NC(=O)N1c2ccccc2CC(=O)c2ccccc21 [OXCARBAZEPINE] , output reported Bacterial Biotransformation.
Compound NOT metabolized

###

# condition_description: human gut metagenome, 24 h, 2 µM
quantity: Bacterial Biotransformation

Use the examples below as a reference point.
CC(C)(Oc1ccc(CCNC(=O)c2ccc(Cl)cc2)cc1)C(=O)O [BEZAFIBRATE] : Compound NOT metabolized
CN1CC(=O)N2[C@H](c3ccc4c(c3)OCO4)c3[nH]c4ccccc4c3C[C@@H]2C1=O : Compound NOT metabolized
Cc1cc2c(cc1S(N)(=O)=O)S(=O)(=O)CCC2 : Compound NOT metabolized
CC(=O)OCC(=O)[C@@]12N=C(C)O[C@@H]1C[C@H]1[C@@H]3CCC4=CC(=O)C=C[C@]4(C)[C@H]3[C@@H](O)C[C@@]12C : Compound metabolized
CC[C@H](C)C(=O)O[C@H]1C[C@@H](C)C=C2C=C[C@H](C)[C@H](CC[C@@H]3C[C@@H](O)CC(=O)O3)[C@H]21 : Compound NOT metabolized
CC(C)(C(=O)O)c1ccc(C(O)CCCN2CCC(C(O)(c3ccccc3)c3ccccc3)CC2)cc1 (stereo unspecified) [FEXOFENADINE] : Compound NOT metabolized
COc1ccc2c(c1OC)C(=O)O[C@@H]2[C@H]1c2c(cc3c(c2OC)OCO3)CCN1C : Compound metabolized
CC(C)NCC(O)COc1ccc(COCCOC(C)C)cc1.CC(C)NCC(O)COc1ccc(COCCOC(C)C)cc1.O=C(O)/C=C/C(=O)O (stereo unspecified) [BISOPROLOL FUMARATE] : Compound NOT metabolized
CN1C(=O)CCS(=O)(=O)C1c1ccc(Cl)cc1 (stereo unspecified) : Compound NOT metabolized
NC(CO)(CO)CO.O=C(c1ccccc1)c1ccc2n1CCC2C(=O)O (stereo unspecified) : Compound metabolized

Quickly give me recorded Bacterial Biotransformation for COc1cc2nc(N3CCN(C(=O)c4ccco4)CC3)nc(N)c2cc1OC
Compound NOT metabolized

Indicate its recorded Bacterial Biotransformation; the molecule in question is CCCC1O[C@@H]2C[C@H]3[C@@H]4CCC5=CC(=O)C=C[C@]5(C)[C@H]4[C@@H](O)C[C@]3(C)[C@]2(C(=O)CO)O1 (stereo partly specified) [BUDESONIDE]
Compound metabolized

Note down Bacterial Biotransformation recorded for CN(C)CC(c1ccc(O)cc1)C1(O)CCCCC1.O=C(O)CCC(=O)O (stereo unspecified) [DESVENLAFAXINE SUCCINATE]
Compound NOT metabolized
